Every entry's value here was drawn from patent US20060078535A1.

subjectOfTest: T1, immobilized α5β1 integrin (UniProt P08648 42-1049; P05556 21-798)
T1 construct: also called α5β1 integrin receptor; α5β1 integrin fibronectin receptor
protocolNotes: saturation binding of PHSCNGGK(biotin) to immobilized α5β1 integrin, read as optical density at 490 nm (FIG. 11)
parameterMeasured: Kd (nM)
Give the number; nM is assumed, so skip it.

State the recorded Kd for this entry: Ac-PHSCNGG-{K(biotin)-NH2} (also: further groups not given here, also called biotinylated PHSCN peptide) [Ac-PHSCNGGK(biotin)-NH2]
272
